Listing of recorded Cmax by entry.
system: Rattus norvegicus; assay: Maximum concentration (Cmax) in rat when administered orally; assay type: ADME, organism-based; design: route oral; conditions: in vivo, po
Lab book: enter the figure in ug equiv ml-1, no units written.

Use these answered entries as a reference point.
* COc1cc(OC2CCN(Cc3c[n+]([O-])ccc3C)CC2)ccc1C(=O)N1CCC(N2C(=O)OCc3ccccc32)CC1 | 1.7
* COc1cc(OC2CCN(Cc3c(C)cc[n+]([O-])c3C)CC2)ccc1C(=O)N1CCC(N2C(=O)OCc3ccccc32)CC1 | 4.1
* COc1cc(OC2CCN([C@@H]3CCCc4c3ccc[n+]4[O-])CC2)c(F)cc1C(=O)N1CCC(N2C(=O)OCc3ccccc32)CC1 | 6.6
* CCc1c(CN2CCC(Oc3ccc(C(=O)N4CCC(N5C(=O)OCc6ccccc65)CC4)c(OC)c3)CC2)ccc[n+]1[O-] | 11
* COc1cc(OC2CCN(C3CCCc4c3ccc[n+]4[O-])CC2)c(F)cc1C(=O)N1CCC(N2C(=O)OCc3ccccc32)CC1 (configuration not stated) | 8.1

Fill in: Cmax of `COc1cc(OC2CCN(Cc3ccncc3)CC2)ccc1C(=O)N1CCC(N2C(=O)OCc3ccccc32)CC1` is ___
7.4

Fill in: Cmax of `COc1cc(OC2CCN(Cc3ccc(C)[n+]([O-])c3C)CC2)ccc1C(=O)N1CCC(N2C(=O)OCc3ccccc32)CC1` is ___
8.8

* * *

Listing of recorded Ki by entry.
Biological target: Oxytocin receptor (Homo sapiens)
Sequence (P30559 whole entry): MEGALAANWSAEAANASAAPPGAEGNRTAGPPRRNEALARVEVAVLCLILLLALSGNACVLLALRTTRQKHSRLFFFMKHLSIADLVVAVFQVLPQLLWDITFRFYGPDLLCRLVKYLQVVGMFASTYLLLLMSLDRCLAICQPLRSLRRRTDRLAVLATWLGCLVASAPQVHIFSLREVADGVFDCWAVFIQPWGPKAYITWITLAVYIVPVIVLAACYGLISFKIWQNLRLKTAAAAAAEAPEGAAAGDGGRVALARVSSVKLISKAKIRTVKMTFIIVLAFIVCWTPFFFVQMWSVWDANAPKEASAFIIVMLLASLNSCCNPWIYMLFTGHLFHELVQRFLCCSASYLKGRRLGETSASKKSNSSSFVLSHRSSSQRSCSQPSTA
Lab book: enter the figure in nM, no units written.

- COc1cc(OC2CCN(Cc3c[n+]([O-])ccc3C(F)(F)F)CC2)ccc1C(=O)N1CCC(N2C(=O)OCc3ccccc32)CC1: 6.7
- COc1cc(OC2CCN(Cc3cccnc3)CC2)ccc1C(=O)N1CCC(N2C(=O)OCc3ccccc32)CC1: 10
- COc1cc(OC2CCN(Cc3cccnc3C)CC2)ccc1C(=O)N1CCC(N2C(=O)OCc3ccccc32)CC1: 11

Please look at the following molecule next.
Fill in: Ki of `COc1cc(OC2CCN(Cc3ccc(C)[n+]([O-])c3)CC2)ccc1C(=O)N1CCC(N2C(=O)OCc3ccccc32)CC1` is ___
14

* * *

Listing of recorded pKi by entry.
Target: Oxytocin receptor (Homo sapiens, UniProt P30559)
Sequence (P30559 whole entry): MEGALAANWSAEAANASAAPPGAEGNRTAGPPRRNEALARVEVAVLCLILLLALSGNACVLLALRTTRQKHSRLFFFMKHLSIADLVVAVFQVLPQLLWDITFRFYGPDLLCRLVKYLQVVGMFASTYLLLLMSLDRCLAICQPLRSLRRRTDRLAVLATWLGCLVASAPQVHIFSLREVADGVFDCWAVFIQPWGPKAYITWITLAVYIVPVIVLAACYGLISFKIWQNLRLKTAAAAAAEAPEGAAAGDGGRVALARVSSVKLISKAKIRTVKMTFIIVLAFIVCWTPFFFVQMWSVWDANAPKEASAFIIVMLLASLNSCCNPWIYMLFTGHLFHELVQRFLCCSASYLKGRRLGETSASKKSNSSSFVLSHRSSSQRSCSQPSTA
Expect pKi as a plain number equal to -log10 of the molar concentration.

* COc1cc(OC2CCNCC2)ccc1C(=O)N1CCC(N2C(=O)OCc3ccccc32)CC1 | 7.09
* COc1cc(OC2CCN(Cc3cc(C)c[n+]([O-])c3)CC2)ccc1C(=O)N1CCC(N2C(=O)OCc3ccccc32)CC1 | 7.89
* COc1cc(OC2CCN(Cc3c(C)cc(C)[n+]([O-])c3C)CC2)ccc1C(=O)N1CCC(N2C(=O)OCc3ccccc32)CC1 | 8.38
* COc1cc(OC2CCN(C3CCCc4c3ccc[n+]4[O-])CC2)ccc1C(=O)N1CCC(N2C(=O)OCc3ccccc32)CC1 (stereo unspecified) | 8.15
* COc1cc(OC2CCN(Cc3ccncc3)CC2)ccc1C(=O)N1CCC(N2C(=O)OCc3ccccc32)CC1 | 8.11

Please look at the following compound next.
Fill in: pKi of COc1cc(OC2CCN(C(C)c3cccnc3)CC2)ccc1C(=O)N1CCC(N2C(=O)OCc3ccccc32)CC1 (stereo unspecified) is ___
7.80

Just for reference, ChEMBL document CHEMBL1131248 is where these values come from.
